Cited source for all entries: ChEMBL document CHEMBL4513216

assay: Toxicity liver stage against HepG2, at 10uM; assay type: cell-based; parameters: test concentration 10 uM, cell line HepG2-A16-CD81EGFP; details: human, HepG2-A16-CD81EGFP cells; read-out: INHIBITION
Each item that follows carries a reported cytotoxicity at 10 µM.
Just the number in %, nothing appended.

Below are worked cases with known answers.
{"columns": ["Compound", "Units text", "cytotoxicity at 10 µM"],
 "data": [
  ["COc1cnc(N2CCN(C)CC2)nc1-c1ccnn1C", "%", 0.868],
  ["OC1(CN2CCCC(Cn3cncn3)C2)CCCCC1 (stereo not drawn)", "%", 2.96],
  ["Cc1cc(CN2C[C@@H]3CCCO[C@@H]3[C@H](N(C)C(C)C)C2)no1", "%", 2.44],
  ["CC(C)CNC(=O)N1C[C@H]2CC[C@@]3(N=C(c4ccccc4)NC3=O)[C@H]2C1", "%", -5.82]
]}

Lookup: I have this compound here, CC(C)c1nn(C)c(N(C)C)c1CNCC(O)c1ccccc1F (stereo not drawn) , and I need its recorded cytotoxicity at 10 µM.
Found: -5.87

Lookup: What value of measured cytotoxicity at 10 µM is listed for `CN1CCC(Cc2nc(-c3ccnn3C)n(Cc3ccccc3)n2)CC1` ?
Found: 44.1

Lookup: # lookup: cytotoxicity at 10 µM of `Cc1nc(-n2nc(C3CC3)cc2NC(=O)C(C)C)[nH]c(=O)c1C`
Found: 54.5

Lookup: Which cytotoxicity at 10 µM is listed for Cn1cc(CNCC2Cn3nnc(-c4ccccc4)c3CO2)cn1 (stereo not drawn) ?
Found: -4.66

* * *

assay: Toxicity liver stage against HepG2, at 10uM; assay type: cell-based; parameters: test concentration 10 uM, cell line HepG2-A16-CD81EGFP; details: human, HepG2-A16-CD81EGFP cells; read-out: INHIBITION
Endpoint label: cytotoxicity at 10 µM (%)
Unit % implied. Number only.

Below, each entry is followed by its recorded cytotoxicity at 10 µM result.
{"columns": ["Molecule", "Endpoint label", "Recorded measurement"],
 "data": [
  ["CCc1ccc2nc(C)cc(C(=O)NC3CCNC3=O)c2c1 (stereo not given)", "cytotoxicity at 10 µM", -4.65],
  ["O=C(Cc1cccc(F)c1)N1CCc2ncnc(N3CCCC3)c2CC1", "cytotoxicity at 10 µM", -4.9],
  ["CCOC1COC2(CCN(C(=O)c3cccc(C)n3)CC2)C1 (stereo not given)", "cytotoxicity at 10 µM", 6.24]
]}

Lookup: Find the recorded cytotoxicity at 10 µM belonging to COCC1c2c(cnn2CC2CC2)CCN1Cc1nccs1 (stereo not given) and report it.
Found: -1.21

* * *

Below is a list of entries, each paired with its recorded cytotoxicity at 10 µM value.
test: Toxicity liver stage against HepG2, at 10uM; format: cell-based; set-up: test concentration 10 uM, cell line HepG2-A16-CD81EGFP; conditions: human, HepG2-A16-CD81EGFP cells; read-out: INHIBITION
Expressed in %, but write only the number.

Known cytotoxicity at 10 µM results, listed for orientation:
{"columns": ["Molecule", "Endpoint label", "Recorded measurement"],
 "data": [
  ["CCN(CC)CCNC(=O)CCc1c(C)nn(-c2ccccc2Br)c1C", "cytotoxicity at 10 µM", 10.6],
  ["NC(=O)CN1CCCC(c2ccnc(Nc3ncccn3)c2)C1 (stereo not drawn)", "cytotoxicity at 10 µM", 10.1],
  ["O=C(c1c[nH]cn1)N1CCC(F)(F)C2(CCN(c3ccccn3)C2)C1 (stereo not drawn)", "cytotoxicity at 10 µM", 11],
  ["COc1ncc(NCc2ccsc2)cc1C(N)=O", "cytotoxicity at 10 µM", 1.25],
  ["CN1CCN(Cc2ccccc2Oc2ccc(C(N)=O)cn2)CC1", "cytotoxicity at 10 µM", -23.6]
]}

Lookup: Consider the molecule `O=C(c1ccc(N2CCCC2)nn1)N1CCCc2cc(F)c(F)cc21` and give its measured cytotoxicity at 10 µM.
Found: -16.3

Lookup: What value of cytotoxicity at 10 µM has been recorded for this entry: O=C(CCc1cscn1)N1CCCC1c1noc(C2CC2)n1 (stereo not drawn)
Found: -10.9

Lookup: Requested field: cytotoxicity at 10 µM. Item: CCOC(=O)c1n[nH]cc1CN1CCCC(N(C)Cc2ccccc2)C1 (stereo not drawn)
Found: -1.44

Lookup: Please look up its cytotoxicity at 10 µM: `Cc1nc(NS(=O)(=O)c2cc(C)c(Br)cc2C)no1`
Found: 5.42

Lookup: Fill in the blank: the reported cytotoxicity at 10 µM of COC(=O)CC(c1cnn(C)c1)c1oc(C)cc(=O)c1O (stereo not drawn) is ____.
Found: 21.9

Lookup: Reported cytotoxicity at 10 µM for `COc1ncccc1NC(=O)NCC1CC1` : what is it?
Found: -2.45

Lookup: I would be grateful if you could share the reported cytotoxicity at 10 µM for CCN1CC2(CC1=O)CN(Cc1ccco1)CCN(C(=O)N(C)C)C2 (stereo not drawn) .
Found: -6.05

Lookup: Which cytotoxicity at 10 µM is reported for this molecule? CN(Cc1ccco1)C(=O)NC(Cn1ccnc1)C(C)(C)C (stereo not drawn)
Found: -3.36

Lookup: Requested read-out: cytotoxicity at 10 µM. Entry: COc1c(Br)c(CC2CC(CO)=NO2)c(Br)c2c1OCO2 (stereo not drawn)
Found: 6.97

Lookup: // query cytotoxicity at 10 µM value for entry `COCCO[C@@H]1CCN(c2cc(OC)ncn2)[C@H]1Cc1cnn(C)c1`
Found: -142

Lookup: I'd like to know its cytotoxicity at 10 µM. The molecule in question is `c1nc2onc(C3CC3)c2cc1-c1nnc(C2CC2)o1`
Found: 8.03

Lookup: Would you kindly share the measured cytotoxicity at 10 µM for `Cc1cnc(CCN(C)C(=O)c2cccc(N(C)C)c2)s1` ?
Found: 2.05

Lookup: Using the record for CC(=O)N1CCOC(CNC(=O)c2cccc(CCC(C)(C)O)c2)C1 (stereo not drawn) , report its cytotoxicity at 10 µM.
Found: 0.303

Lookup: Give the measured cytotoxicity at 10 µM of `C1CC(CN2C[C@@H]3C[C@@H](c4nnc(C5CC5)o4)O[C@@H]3C2)C1` .
Found: 14.9

* * *

assay: Toxicity liver stage against HepG2, at 10uM; type: cell-based; parameters: test concentration 10 uM, cell line HepG2-A16-CD81EGFP; conditions: human, HepG2-A16-CD81EGFP cells; read-out: INHIBITION
Overview of reported cytotoxicity at 10 µM across a group of compounds:
Report the value in % with no unit label.

The following compounds have reported results that may help.
{"columns": ["Compound", "cytotoxicity at 10 µM (%)"],
 "data": [
  ["Cc1ccc(S(=O)(=O)NCC2COCc3c(C)nnn3C2)cc1F (centres undefined)", -4.55],
  ["COc1ccc(CCC(=O)N2CCN(c3nc(C)ns3)CC2)cc1", 6.26],
  ["CC(=O)NCC1CCN(CC2CCOc3ccccc3C2)CC1 (centres undefined)", 10.3],
  ["CCOc1cccc(CNC(=O)N2CCC(Cc3cnn(C)c3)C2)c1 (centres undefined)", -3.16],
  ["COCCCn1ccc(NC(=O)NCCCn2ccnc2)n1", -3.04],
  ["COc1cccc(CN2CCc3nc(C(=O)NCC(C)C)sc3CC2)c1", 16.8],
  ["Cc1cccc(C2(CNC(=O)C(C)NC(N)=O)CCCC2)c1 (centres undefined)", 7.19],
  ["O=C(CCCc1nc2ccccc2[nH]1)N1CCCC1c1ccncc1 (centres undefined)", 3.79]
]}

Lookup: Given the compound O=C(CC1COCCN1)NCCc1nc(Cc2ccccc2)no1 (centres undefined) , what is its reported cytotoxicity at 10 µM?
Found: -2.81

Lookup: Please look up its cytotoxicity at 10 µM: `Cc1nc(C(=O)Nc2cccnc2)c(C(C)C)s1`
Found: -2.36

Lookup: Requested read-out: cytotoxicity at 10 µM. Entry: Cn1ncc2c1CN(C(=O)Cc1ccccn1)CC2COCC1CC1 (centres undefined)
Found: -73.6

* * *

experiment: Toxicity liver stage against HepG2, at 10uM; assay type: cell-based; design: test concentration 10 uM, cell line HepG2-A16-CD81EGFP; details: human, HepG2-A16-CD81EGFP cells; read-out: INHIBITION
Attribute: cytotoxicity at 10 µM
Note: unit % is implicit; provide only the numeric part.

Before answering, review these 10 worked examples.
{"columns": ["Compound", "cytotoxicity at 10 µM, %"],
 "data": [
  ["CN1CCN(S(=O)(=O)c2ccc(Sc3nccn3C)nc2)CC1", 10.2],
  ["CCc1nnc2n1CCN(C(=O)c1cnc3c(cnn3C(C)C)c1)C2", -7.58],
  ["O=C1CCCN1Cc1ncn2c1CN(Cc1cccs1)CCC2", -84.1],
  ["CCOC(=O)N1CCC(NCC2CCN(c3cnn(C)c(=O)c3)C2)CC1 (stereo unspecified)", 8.39],
  ["CO[C@@H]1CCN(Cc2ccccn2)[C@@H]2CN(Cc3ccco3)C[C@@H]21", 6.73],
  ["Cc1nonc1NC(=O)c1ccc(F)c(COCC2CC2)c1", 18.6],
  ["CC(C)c1nc(C2CCCN2CCNS(C)(=O)=O)no1 (stereo unspecified)", 3.33],
  ["CC(=O)N1CCCN(C(=O)Cc2c(C)nc(C)[nH]c2=O)CC1", -8.28],
  ["CCC(C)(COc1ncccc1Cl)NCC(=O)NCC(C)C (stereo unspecified)", -2.86],
  ["COc1cn(-c2ccccc2)nc1C(=O)NCCCN1CCCC(C)C1 (stereo unspecified)", -11.1]
]}

Lookup: I would be grateful if you could share the reported cytotoxicity at 10 µM for CSCCC(=O)N1CCCCC1CCn1cccn1 (stereo unspecified) .
Found: -1.94

Lookup: Value lookup for cytotoxicity at 10 µM; key = `CCN(Cc1ccoc1)Cc1nc(COC)no1`
Found: -0.566

Lookup: Record request: cytotoxicity at 10 µM value, item `Cc1ccc(C(=O)NC2CCN(Cc3noc(C(C)(C)C)n3)CC2)s1`
Found: 1.33

Lookup: Quick one: cytotoxicity at 10 µM for COc1c(C2CCCN2C(=O)c2ccc(C#N)c(C)n2)c(C)nn1C (stereo unspecified) ?
Found: -8.45

Lookup: Could you share which cytotoxicity at 10 µM value was measured for `O=C(Cn1ccc(=O)[nH]c1=O)NCc1cccnc1OCC(F)(F)F` ?
Found: -5.88
